This collection of values is drawn from paper PMC10786891.

Biological target: T1, EsCas13d, nuclease-dead (Eubacterium siraeum, UniProt B0MS50, R295A;H300A;R849A;H854A)
T1 sequence: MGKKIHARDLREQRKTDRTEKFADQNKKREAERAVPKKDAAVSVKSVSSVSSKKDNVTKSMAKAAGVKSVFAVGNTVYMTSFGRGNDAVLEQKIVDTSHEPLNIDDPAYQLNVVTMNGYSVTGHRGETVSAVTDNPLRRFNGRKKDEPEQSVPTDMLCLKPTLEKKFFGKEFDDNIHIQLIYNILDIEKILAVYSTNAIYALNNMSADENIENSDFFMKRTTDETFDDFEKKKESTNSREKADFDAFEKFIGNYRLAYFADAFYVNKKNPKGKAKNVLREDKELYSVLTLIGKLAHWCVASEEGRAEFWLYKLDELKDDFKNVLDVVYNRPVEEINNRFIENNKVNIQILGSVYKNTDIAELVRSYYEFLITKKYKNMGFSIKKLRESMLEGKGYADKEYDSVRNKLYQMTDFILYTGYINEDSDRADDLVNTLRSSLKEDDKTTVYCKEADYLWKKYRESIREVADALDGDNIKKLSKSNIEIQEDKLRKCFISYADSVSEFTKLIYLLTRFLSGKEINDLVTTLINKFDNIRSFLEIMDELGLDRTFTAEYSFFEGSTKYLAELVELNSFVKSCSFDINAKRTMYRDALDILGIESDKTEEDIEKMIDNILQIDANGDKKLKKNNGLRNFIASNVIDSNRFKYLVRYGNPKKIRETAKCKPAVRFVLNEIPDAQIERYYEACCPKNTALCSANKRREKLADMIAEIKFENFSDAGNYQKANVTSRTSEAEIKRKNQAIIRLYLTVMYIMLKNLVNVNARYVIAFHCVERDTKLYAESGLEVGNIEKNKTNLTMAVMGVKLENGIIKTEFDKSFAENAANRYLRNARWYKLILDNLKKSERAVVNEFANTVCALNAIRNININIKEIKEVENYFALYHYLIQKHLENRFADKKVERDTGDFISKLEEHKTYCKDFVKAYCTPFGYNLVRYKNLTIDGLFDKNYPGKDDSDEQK
Assay: crRNA (strand 1, pre-loaded); Mg2+; 40 mM Tris-HCl pH 7.5, 150 mM NaCl, 6 mM MgCl2, 1 mM DTT, 0.1% Tween-20, 0.2 mg/ml BSA; 25 C; 10 min per concentration, then washed
Conditions: tags: His6-TwinStrep-SUMO cleaved; N-terminal SNAP kept (SNAP-Surface 488); label: 3' end held by stalled T7 RNA polymerase
measurementLabel: log10(Kd) (log10 of the value in nM)

- target 3 C1U,A18G (mixed) RNA 1: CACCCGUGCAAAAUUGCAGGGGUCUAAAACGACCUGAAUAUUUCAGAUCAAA RNA 2: GGGAAUGGAUCCACAUCUACGAAUUCGUUUUUGGUCUGAAAUAUUCAGGUUUGCAGAUCGGAAGAGCACACGU: 1.63
- target 2 MT 5'PFS AAU 3'PFS CUG (mixed) RNA 1: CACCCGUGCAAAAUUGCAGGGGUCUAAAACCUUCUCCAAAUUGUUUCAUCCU RNA 2: GGGAAUGGAUCCACAUCUACGAAUUCAAUAGGAUGAAACAAUUUGGAGAAGCUGAGAUCGGAAGAGCACACGU: 0.62
- target 1 C2U,U19G (mixed) RNA 1: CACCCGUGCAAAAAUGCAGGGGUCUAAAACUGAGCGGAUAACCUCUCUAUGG RNA 2: GGGAAUGGAUCCACAUCUACGAAUUCGUACCAGAGAGAGGUUAUCCGCUUACCGAGAUCGGAAGAGCACACGU: 1.72
- target 1 G12A,G13A (mixed) RNA 1: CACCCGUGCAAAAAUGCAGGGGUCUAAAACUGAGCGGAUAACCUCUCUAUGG RNA 2: GGGAAUGGAUCCACAUCUACGAAUUCGUACCAUAGAGAAAUUAUCCGCUCACCGAGAUCGGAAGAGCACACGU: 0.72
- target 3 U2A,U7A (mixed) RNA 1: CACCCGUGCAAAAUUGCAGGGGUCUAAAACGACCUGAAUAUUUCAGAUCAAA RNA 2: GGGAAUGGAUCCACAUCUACGAAUUCGUUUUUGAUCUGAAAUAUACAGGACUGCAGAUCGGAAGAGCACACGU: 1.12
- target 2 MT 5'PFS CUC 3'PFS AAG (mixed) RNA 1: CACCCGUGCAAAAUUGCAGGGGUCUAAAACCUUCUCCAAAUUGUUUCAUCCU RNA 2: GGGAAUGGAUCCACAUCUACGAAUUCCUCAGGAUGAAACAAUUUGGAGAAGAAGAGAUCGGAAGAGCACACGU: 0.37
- target 1 insA 3' of 5,insA 3' of 2 (mixed) RNA 1: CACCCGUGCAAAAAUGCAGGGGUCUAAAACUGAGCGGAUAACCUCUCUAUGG RNA 2: GGGAAUGGAUCCACAUCUACGAAUUCGUACCAUAGAGAGGUUAUCCGACUCAACCGAGAUCGGAAGAGCACACGU: 0.89
- target 2 MT 5'PFS GCC 3'PFS AUC (mixed) RNA 1: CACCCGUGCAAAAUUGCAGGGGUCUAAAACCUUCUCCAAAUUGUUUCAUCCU RNA 2: GGGAAUGGAUCCACAUCUACGAAUUCGCCAGGAUGAAACAAUUUGGAGAAGAUCAGAUCGGAAGAGCACACGU: 1.10
